Origin of values: patent US20250195521A1

Molecular target: K-Ras G12C(GMP-PNP) binding to BRAF RBD (Homo sapiens (Human), UniProt P01116+P62937, G12C)
Sequence (P01116 other isoform, or with tags, fused parts or gaps G12C): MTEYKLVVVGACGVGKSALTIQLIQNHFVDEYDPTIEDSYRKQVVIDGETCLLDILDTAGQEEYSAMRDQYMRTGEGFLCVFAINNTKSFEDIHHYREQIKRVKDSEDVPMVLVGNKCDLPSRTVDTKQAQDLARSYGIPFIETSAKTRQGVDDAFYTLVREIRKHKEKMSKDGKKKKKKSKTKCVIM
Sequence (P62937 whole entry): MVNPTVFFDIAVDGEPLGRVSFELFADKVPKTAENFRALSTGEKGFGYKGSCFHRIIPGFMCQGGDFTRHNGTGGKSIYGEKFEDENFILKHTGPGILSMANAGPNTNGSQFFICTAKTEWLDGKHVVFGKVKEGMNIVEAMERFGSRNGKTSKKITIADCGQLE
Experiment: Disruption of BRAF RBD interaction with K-Ras (FRET / MOA assay), K-Ras G12C
Assay type: biochemical
Conditions: read-out: KRAS G12C FRET IC50
MEASUREMENT_KIND: IC50

Some solved entries appear below for comparison.
[
  {
    "MOLECULE": "CCn1c(-c2cccnc2[C@H](C)OC)c2c3cc(ccc31)-c1cc(C(F)F)cc(n1)C[C@H](NC(=O)[C@H](C1CCCC1)N(C)C(=O)[C@H]1CCN(C(=O)C#CC(C)(C)N3CCC3)C1)C(=O)N1CCC[C@H](N1)C(=O)OCC(C)(C)C2 [Compound A456]",
    "IC50": "10 to 100 nM"
  },
  {
    "MOLECULE": "CCn1c(-c2cccnc2[C@H](C)OC)c2c3cc(ccc31)-c1csc(n1)C[C@H](NC(=O)[C@H](C(C)C)N(C)C(=O)N1CC([C@H](C)COC)C1)C(=O)N1CCC[C@H](N1)C(=O)OCC(C)(C)C2 [Compound A533]",
    "IC50": "10 to 100 nM"
  },
  {
    "MOLECULE": "CC[C@@H](COC1CN(C(=O)C#CC(C)(C)N(C)C)C1)C(=O)N[C@H]1Cc2nc(cs2)-c2ccc3c(c2)c(c(-c2cccnc2[C@H](C)OC)n3CC)CC(C)(C)COC(=O)[C@@H]2CCCN(N2)C1=O (atropisomer, axis not shown) [Compound A705]",
    "IC50": "< 10 nM"
  }
]

Okay, next one:
Prompt: So what's the measured IC50 for this one? CCn1c(-c2cccnc2[C@H](C)OC)c2c3cc(ccc31)-c1csc(n1)C[C@H](NC(=O)C1(COC3CN(C(=O)C#CC(C)(C)N4CCC4)C3)CC1)C(=O)N1CCC[C@H](N1)C(=O)OCC(C)(C)C2 [Compound A362]
Response: 10 to 100 nM
